Kindly state PBM binding z-score for each of the entries shown.
test system: RXRa DBDmut IVT, anti-RXR (DBD mutation: RXRa K156A/R161A, NR concentration 90 nM); experiment: PBM binding z-score (relative to random genomic background probes); higher = stronger binding; sequences stand for … in GC…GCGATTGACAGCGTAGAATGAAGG
Just the number, please, no unit attached.

## Input Fill in the blank: the reported PBM binding z-score of "ATATGTAAGTTAGGGTCATTCAGAAAGTAGGGAA" is ____.
## Output 2.47

## Input Now consider "TCGAGTAGGTTACGGGGGCATTGAGGGATGAAGA" and answer again.
## Output 1.71

## Input Field entry: "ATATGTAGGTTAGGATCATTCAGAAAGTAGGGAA"
## Output 0.541

## Input Quick one: "CCTTACGGGTCAAGGTTATCGCACGGGTGGTACG"
## Output 1.31

## Input Next sequence up: "CCGACTGGGGCAAAGGTTACCACACTCAGTACGA"
## Output -0.032

## Input And then "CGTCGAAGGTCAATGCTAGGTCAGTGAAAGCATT" , what is it?
## Output 2.5

## Input Next sequence up: "CGAACTATGTCAAAGGACAGTGAAAGGCGACGTA"
## Output -0.18

## Input Param item: "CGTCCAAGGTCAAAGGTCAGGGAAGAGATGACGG"
## Output 3.54

## Input And for "CGTCCAAGGTCAATGCTAGGCCAGTGAAAGCATT" ?
## Output 3.55

## Input Thanks! And "CCTACTGGGCCACGAAAGGTGATTGATTCAGTGA" ?
## Output -0.663

## Input Same again, this time with "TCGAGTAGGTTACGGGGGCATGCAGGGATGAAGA"
## Output 1.35

## Input Also need "CCGACTGGGGCAAAGGTCACCATACTCAGTACGA" , thanks.
## Output 0.548

## Input Would you mind doing "CAAACTAGGTCACAGAGGTCAAAGTTCGTGCGTA" as well?
## Output 3.36

## Input Here is the next sequence: "AGAATGAGGTTAAGATTAGGGAAACAGAATACAT"
## Output 1.13

## Input Note, next up: "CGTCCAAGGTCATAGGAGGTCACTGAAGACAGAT"
## Output 4.05

## Input Follow-up item: "CTATGTAGGTTAAGGGGGACATTCAGTTTGAAAG"
## Output 1.47

## Input Param item: "ATAGAAAGGTCGAAGGTGAGTATACCCACCCGAA"
## Output 0.55

## Input Same for "AATACAGGGTCACTTGGCCAGAGTAGGTACGAAT"
## Output 3.11

## Input How about "CTATGTAGGTTAAGGGGGTCAATCAGTTTGAAAG" ?
## Output 1.67

## Input Continue with "AATACAGGGTCGCTAGGCCAGAGTAGGTACGAAT"
## Output 0.47

## Input How about "ATATGTAGGTTAGGGTCATTAAGAAAGTAGGGAA" ?
## Output 2.22

## Input // same read-out, input: "GATACAGGGTCAAGGCCAGAGTACGCGTATTGAT"
## Output 2.66

## Input Now this one: "CAAAGTAGGTCAAGAGGTCAAAGTCCGCTTCCCG"
## Output 2.89

## Input What do you have for "CCTACTGGGCCAAGGTCATAGATCAGTCAAAGCA" ?
## Output 0.741

## Input Proceed to "CCGAGTAGGTTACGAGGGCGCATTCAGTGCGAAT"
## Output -0.122

## Input Another sequence to check: "CCTAGTTGGTCAAGCTCACACACGCTATAGGTAC"
## Output 0.623

## Input Also "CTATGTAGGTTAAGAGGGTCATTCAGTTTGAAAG" , if possible.
## Output 1.33

## Input Okay, and "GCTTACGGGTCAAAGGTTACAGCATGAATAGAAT" ?
## Output 2.74

## Input Moving on to the next sequence: "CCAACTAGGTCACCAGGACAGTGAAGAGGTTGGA"
## Output 1.24

## Input Again, but for "TCGAGTAGGTTGCGGGGGCATTCAGGGATGAAGA"
## Output 1.94

## Input Note, next up: "CTAACTAGGTCACCAGGACAGTGAAGAGGTTGGA"
## Output 1.67

## Input Try this sequence next: "ATCGAAAGGTCGTCGAGGTGAGTATACACCGTTT"
## Output 1.72

## Input Try this sequence next: "CTATGTAGGTTAAGGGGATCATTCAGTTTGAAAG"
## Output 0.605

## Input What do we get for "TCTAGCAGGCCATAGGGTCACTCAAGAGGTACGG" ?
## Output 0.333

## Input Again, but for "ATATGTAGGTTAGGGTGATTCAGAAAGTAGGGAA"
## Output 0.979

## Input Entry to check: "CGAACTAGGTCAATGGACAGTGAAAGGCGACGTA"
## Output 1.14

## Input Please give the result for "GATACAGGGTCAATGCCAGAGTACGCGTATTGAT" too.
## Output 2.89

## Input And "GCTGCTAGGTCAGGTTGGTCGGCTAACGGGTACG" ?
## Output -0.206

## Input Would you kindly repeat that for "ATGGAAAGGTCGTGAGGTGAGTATACAGAAAGGC" ?
## Output 1.52

## Input Query "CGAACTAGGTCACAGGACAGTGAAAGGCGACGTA" next
## Output 1.61

## Input # repeat for "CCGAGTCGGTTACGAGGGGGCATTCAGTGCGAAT"
## Output 0.587

## Input Another sequence to check: "CTACGTAGGTTAAGGGGGTCATTCAGTTTGAAAG"
## Output 1.87

## Input Now the sequence "TCTAGTTGGTCATGGAGGTCACACACGACGGGTA"
## Output 1.01

## Input Next sequence up: "CTAGGTAGGTTAAGGGGGTCATTCAGTTTGAAAG"
## Output 1.97

## Input // query: "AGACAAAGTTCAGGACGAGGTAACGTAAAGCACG"
## Output 2.87

## Input Again, but for "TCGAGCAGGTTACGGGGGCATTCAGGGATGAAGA"
## Output 1.34

## Input Next: "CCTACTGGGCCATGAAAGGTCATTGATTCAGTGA"
## Output 0.456

## Input Query "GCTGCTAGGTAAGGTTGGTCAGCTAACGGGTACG" next
## Output -0.185

## Input // same read-out, input: "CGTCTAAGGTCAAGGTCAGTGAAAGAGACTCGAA"
## Output 4.05

## Input Similarly, "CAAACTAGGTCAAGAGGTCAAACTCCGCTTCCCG" ?
## Output 3.21

## Input Would you mind doing "ATATGTAGGTTAGGGTCCTTCAGAAAGTAGGGAA" as well?
## Output 0.642

====

system: PPARg DBDmut IVT, anti-PPARg (DBD mutation: PPARg1 K132A/R137A, NR concentration 270 nM); assay: PBM binding z-score (relative to random genomic background probes); higher = stronger binding; sequences stand for … in GC…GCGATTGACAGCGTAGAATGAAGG
Decide by PBM binding z-score: equal to or exceeding 0.5 means Fulfilled, less means Not fulfilled.

## Input Is it the case that "CGAACTAGGTCACCAGTACAGTGAAGAGGTTGGA" has PBM binding z-score reaching or exceeding 0.5?
## Output Fulfilled

## Input What would you report for "CAAACTAGGTCAAAGGTCAAAGTTGAGCCAACCA" ?
## Output Fulfilled

## Input For "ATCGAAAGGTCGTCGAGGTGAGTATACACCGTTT" then?
## Output Not fulfilled

## Input Further, for "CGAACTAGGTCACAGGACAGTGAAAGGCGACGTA" ?
## Output Fulfilled

## Input "ATCGAAAGGTCGAAGGTCAGTATACCCACCCGAA" , same question.
## Output Fulfilled

## Input Follow-up entry: "ATCTCTAGGTAAAGTTCAGCGAAAGATCGATAGA"
## Output Fulfilled

## Input Now the same for "GCTGCTAGGTCAACTGATGGTCAGCTAGAGCTCG"
## Output Fulfilled

## Input Ok, now "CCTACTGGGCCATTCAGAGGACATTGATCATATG"
## Output Not fulfilled

## Input Lookup "CAAAGTAGGTCAAGGTCAAAGTCGGTTTGTGCCA"
## Output Fulfilled

## Input // next record "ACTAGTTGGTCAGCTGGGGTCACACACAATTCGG"
## Output Not fulfilled

## Input Entry to check: "TCTTGTAGATCAAAGGTTAAGACAGCCGAAGCCT"
## Output Fulfilled

## Input And the next one, "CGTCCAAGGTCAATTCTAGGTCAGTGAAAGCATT" ?
## Output Not fulfilled
